Test system: HCT-15
Assign GI50 to each entry below.

Q) Name the recorded GI50 of S=C(Cc1ccc2c(c1)Sc1ccccc1O2)N1CCOCC1 , assay system HCT-15.
A) 41.9 µM

Q) Name the recorded GI50 of N#Cc1nc(C2CCC(=O)O2)oc1N (stereo not given) , assay system HCT-15.
A) > 100 µM

Q) Name the recorded GI50 of CC1=NN2C(=N)/C(=C/c3ccc(F)cc3)C(=O)N=C2S1 , assay system HCT-15.
A) > 100 µM

Q) Name the recorded GI50 of C[C@]12CC[C@H](OC3CCCCO3)CC1=CC[C@@H]1C2CC[C@]2(C)/C(=N/OCCC#N)CCC12 (stereo not given in full) , assay system HCT-15.
A) > 100 µM

Q) Name the recorded GI50 of O=C(N/N=C1\C(=O)Nc2ccc(Br)cc21)/C(O)=C/C(=O)c1ccc(Cl)cc1 , assay system HCT-15.
A) 64.4 µM

###

System: HCT-116
Test: NCI tumour cell line growth inhibition, 48 h
Activity calls are given as the source filed them. No stated cut-off is given here; in the data, active = GI50 up to about 1.1 µM and inactive = higher.
Form entry, call: pick from label 1 = active, label 0 = inactive

Q) What call does the record list for C/C=C(\C)C(=O)OC1C(C)=C2C(C1OC(=O)CCCC)C(C)(OC(C)=O)CC(OC(=O)CCCC)C1(O)C2OC(=O)C1(C)O (stereo not given) ?
A) label 1

Q) What call does the record list for NCCNC(=O)c1cccc2cc3ccccc3nc12 ?
A) label 1

Q) What call does the record list for O=C(NNS(=O)(=O)c1ccccc1)c1cccnc1 ?
A) label 0

Q) What call does the record list for Nc1c([N+](=O)[O-])cc2c3c(cccc13)CC2 ?
A) label 0

Q) What call does the record list for COc1cccc(/C=C2\C(=O)N(C(=O)Cc3ccccc3)N=C2C)c1 ?
A) label 0

###

Tested on: SF-539
Test: NCI tumour cell line growth inhibition, 48 h
Calls of active or inactive are those of the source. Cut-off read from the data, not from the text of the source: active = GI50 up to about 1.1 µM and inactive = higher.
parameter measured: GI50

Q) Name the recorded GI50 of CCOC(=O)C1S/C(=N\c2ccccc2)N=C1C (stereo not drawn) , assay system SF-539.
A) 73.5 µM (inactive)

Q) Name the recorded GI50 of CC(C)(C)OC(=O)NC(Cc1ccc(OCc2ccccc2)cc1)C(=O)NC(COCc1ccccc1)C(=O)Oc1c(Cl)c(Cl)c(Cl)c(Cl)c1Cl (stereo not drawn) , assay system SF-539.
A) 15.5 µM (inactive)

Q) Name the recorded GI50 of CCCCCCCC(=O)OCC1OC(n2cc(F)c(=O)[nH]c2=O)C(NC(=O)OCc2ccccc2)C(OC(=O)CCCCCCC)C1O (stereo not drawn) , assay system SF-539.
A) 26.3 µM (inactive)

Q) Name the recorded GI50 of CN1CN(c2ccccc2)C2(CCN(CCCC(=O)c3cccs3)CC2)C1=O , assay system SF-539.
A) 23.8 µM (inactive)

Q) Name the recorded GI50 of C/C(NC(=O)c1ccccc1)=C(/C(=O)c1ccccc1)[C@@H]1OC(C)(C)O[C@@H]1[C@H]1COC(C)(C)O1 , assay system SF-539.
A) 54 µM (inactive)

Q) Name the recorded GI50 of COc1cc2c(cc1O)CC1c3c(cc(O)c(OC)c3-2)CCN1C (stereo not drawn) , assay system SF-539.
A) > 39.9 µM (inactive)

Q) Name the recorded GI50 of O=C(CCc1cc(-c2ccccc2)nc(S)n1)N(Cc1ccccc1)Cc1ccccc1 , assay system SF-539.
A) > 100 µM (inactive)

Q) Name the recorded GI50 of CC(C)(O)C1CC[C@]2(C)CC[C@]3(C)[C@H](CC[C@@H]4[C@@]5(C)CC[C@H](O)C(C)(C)[C@@H]5CC[C@]43C)[C@@H]12 (stereo partly drawn) , assay system SF-539.
A) 23.4 µM (inactive)

###

System: COLO 205
Test: NCI tumour cell line growth inhibition, 48 h
Calls of active or inactive are those of the source. Rule as the data show it: active = GI50 up to about 1.1 µM and inactive = higher.
Assign GI50 to each entry below.

Q) Name the recorded GI50 of CC(C)Cc1ccc(C(C)/C=C2\CCC(CN(C)C)C2=O)cc1 (configuration not stated) , assay system COLO 205.
A) 11.6 µM (inactive)

Q) Name the recorded GI50 of COC1C(OC(=O)/C=C/C=C/C=C/C=C\C(=O)O)CCC2(CO2)C1C1(C)OC1CC=C(C)C (configuration not stated) , assay system COLO 205.
A) > 100 µM (inactive)

Q) Name the recorded GI50 of N#CC1(c2nc3ccccc3o2)C(=O)C(=O)N(C2C3CC4CC(C3)CC2C4)C(=O)C1=O (configuration not stated) , assay system COLO 205.
A) > 100 µM (inactive)

Q) Name the recorded GI50 of C=C1C(=O)O[C@@H]2C[C@@]3(C)[C@H](O)CCC(=C)[C@@H]3C[C@H]12 , assay system COLO 205.
A) 2.72 µM (inactive)

Q) Name the recorded GI50 of CCN(CC)CCOc1ccc(N2C(=O)c3cccc4cc([N+](=O)[O-])cc(c34)C2=O)cc1 , assay system COLO 205.
A) 10 µM (inactive)

Q) Name the recorded GI50 of Cc1nc2n(c1/C=C1/C(=O)Nc3cccc(Cl)c31)CCS2 , assay system COLO 205.
A) > 100 µM (inactive)

Q) Name the recorded GI50 of CCOC(=O)C(NC(=O)NCc1ccc(F)cc1)C(F)(F)F (configuration not stated) , assay system COLO 205.
A) > 100 µM (inactive)

###

Assign GI50 to each entry below.
System: DMS-273
Assay: NCI tumour cell line growth inhibition, 48 h
Activity calls are given as the source filed them. Cut-off read from the data, not from the text of the source: active = GI50 up to about 1.1 µM and inactive = higher.

Q) Complete the entry with GI50 for CCCOP1(=O)C=C(O)C(Cl)=C(C)C1 (stereo not given)
A) > 100 µM (inactive)

Q) Complete the entry with GI50 for COC1CC(OS(=O)(=O)c2ccc([N+](=O)[O-])cc2)C(OC(=O)c2ccccc2)C(C)O1 (stereo not given)
A) > 100 µM (inactive)

Q) Complete the entry with GI50 for c1ccc2c(c1)nnn2CNc1ccc(N2CCOCC2)cc1
A) > 100 µM (inactive)

Q) Complete the entry with GI50 for O=c1c2ccccc2nc(-c2ccc(Br)cc2)n1NC1OC(CO)C(O)C(O)C1O (stereo not given)
A) > 100 µM (inactive)

Q) Complete the entry with GI50 for CC(C)(C)c1ccc(C(O)c2ccc(C(C)(C)C)cc2)cc1
A) 12.6 µM (inactive)

Q) Complete the entry with GI50 for CCOC(=O)c1oc2c(OC)ccc3c2c1CCC3
A) > 100 µM (inactive)

Q) Complete the entry with GI50 for CCOc1ccc(NC(=O)C(=O)CC(=O)c2c(C)[n+]([O-])c3ccccc3[n+]2[O-])cc1
A) > 100 µM (inactive)

Q) Complete the entry with GI50 for C[C@H](CCC1SC1(C)C)C1CCC2(C)C3=C(CC[C@]12C)[C@@]1(C)CC[C@H](O)C(C)(C)C1CC3 (stereo not given in full)
A) > 100 µM (inactive)

Q) Complete the entry with GI50 for Cc1ccc(N2Cc3c(ccc4ccccc34)OP2(=O)Oc2ccc(Cl)c(C)c2)cc1 (stereo not given)
A) > 77.8 µM (inactive)

Q) Complete the entry with GI50 for COc1ccc2c(c1)OCCC1=C2SCC2(C)CCN=C12 (stereo not given)
A) > 100 µM (inactive)

###

System: TK-10
Test: NCI tumour cell line growth inhibition, 48 h
Activity calls are given as the source filed them. No stated cut-off is given here; in the data, active = GI50 up to about 1.1 µM and inactive = higher.
parameter measured: GI50

Q) Complete the entry with GI50 for Cc1nc2n(c1/C=C1/C(=O)Nc3cccc(Cl)c31)CCS2
A) 37.7 µM (inactive)

Q) Complete the entry with GI50 for CCOC(=O)N/N=C(/N)c1cccc(Br)c1
A) > 100 µM (inactive)

Q) Complete the entry with GI50 for CC(C)OP(=O)(CN(C)/C(F)=N\C(F)(F)F)OC(C)C
A) > 100 µM (inactive)

Q) Complete the entry with GI50 for NC(=O)c1ccccc1NC(=O)C(=O)C(c1cnc2ccc([N+](=O)[O-])cc2n1)[N+](=O)[O-] (centres undefined)
A) > 100 µM (inactive)

Q) Complete the entry with GI50 for C=C1CCC2[C@@H](CCC3[C@]2(C)CCC[C@]3(C)C(=O)OC)C1CCO (some centres undefined)
A) 18.6 µM (inactive)

Q) Complete the entry with GI50 for COc1ccc(C(=O)N2CCN(c3ccc4c(c3)OCC(=O)N4)CC2)cc1OC
A) > 100 µM (inactive)

Q) Complete the entry with GI50 for COc1cc(-c2oc3c(OC)cc(OC)c(O)c3c(=O)c2OC)cc(OC)c1OC
A) > 100 µM (inactive)

Q) Complete the entry with GI50 for S=C(/N=c1\sc(Nc2ccc(Cl)cc2)nc2sc3c(c12)CCN(N1CCc2c(sc4nc(Nc5ccc(Cl)cc5)s/c(=N\C(=S)Nc5ccc(Cl)cc5)c24)C1)C3)Nc1ccc(Cl)cc1
A) 44.6 µM (inactive)

Q) Complete the entry with GI50 for COC(=O)/C(=N/Nc1cccc(Cl)c1)C(C(=O)C(=O)Nc1cccc(Cl)c1C)c1nc2ccccc2nc1C (centres undefined)
A) > 100 µM (inactive)
